Molecular target: T1, ALPI His homodimer (Homo sapiens, UniProt P09923)
T1 sequence (P09923 with tags, fused parts or gaps): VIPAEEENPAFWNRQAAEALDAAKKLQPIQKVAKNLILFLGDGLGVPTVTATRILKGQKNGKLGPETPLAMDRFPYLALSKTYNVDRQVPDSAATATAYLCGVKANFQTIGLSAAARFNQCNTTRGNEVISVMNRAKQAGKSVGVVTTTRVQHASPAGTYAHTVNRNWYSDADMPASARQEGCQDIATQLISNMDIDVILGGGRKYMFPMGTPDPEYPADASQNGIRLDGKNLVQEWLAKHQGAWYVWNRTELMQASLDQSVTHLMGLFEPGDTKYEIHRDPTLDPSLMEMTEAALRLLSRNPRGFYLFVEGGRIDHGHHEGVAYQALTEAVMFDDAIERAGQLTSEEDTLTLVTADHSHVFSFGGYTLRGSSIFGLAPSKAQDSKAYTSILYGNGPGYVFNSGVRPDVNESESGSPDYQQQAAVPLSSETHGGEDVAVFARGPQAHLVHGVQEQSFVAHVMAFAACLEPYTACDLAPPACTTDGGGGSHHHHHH
Assay: ELISA binding to ALPI
Settings: 500 ng purified VHH
Measured Quantity: ELISA hALPI

E06: ALPP/ALPPL2 targeting VHH domain, SEQ ID NO: 30 (protein) VHH: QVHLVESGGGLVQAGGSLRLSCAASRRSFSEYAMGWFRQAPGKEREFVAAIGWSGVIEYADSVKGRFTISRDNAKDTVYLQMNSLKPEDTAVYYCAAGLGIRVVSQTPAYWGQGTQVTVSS: No Binding
H10: ALPP targeting VHH domain, SEQ ID NO: 40 (protein) VHH: QVQLVESGGGSVQTGGSLRLSCAASGPSLSNYAMGWFRQAPGKEREFVAGISWGGGRTNYLDSVKGRFTISRDNAKNTMYLQMNSLKPEDAAVYYCAGRYGRGRDVEYEYDYWGQGTQVTVSS: No Binding
H09: ALPP targeting VHH domain, SEQ ID NO: 39 (protein) VHH: QVQLVESGGGSVQTGGSLRLSCAASGPSLSNYAMGWFRQAPGKEREFVAGISWGGGRTNYLDSVKGRFTISRDNAKNTMYLQMNSLKPEDTAVYYCAGRYGRGRDVEYEYDYWGQGTQVTVSS: No Binding
